The measured values listed here are drawn from ChEMBL document CHEMBL3272273.

Experiment: Acute toxicity in ip dosed albino mouse measured within 24 hrs
Format: organism-based
Conditions: in vivo
endpoint_name: LD50 at 24 h

Guide cases for LD50 at 24 h, answers given:
>>> result("Nc1ccc2c(c1)C(=O)NCCN2c1ccc([N+](=O)[O-])cc1")
"> 400 mg/kg"
>>> result("O=C1NCCN(c2ccc([N+](=O)[O-])cc2)c2ccc([N+](=O)[O-])cc21")
"> 400 mg/kg"

Now examine the next entry.
Note to self: LD50 at 24 h recorded for "Nc1ccc(N2CCNC(=O)c3ccccc32)cc1" was > 400 mg/kg

* * *

Item-by-item account of Activity
Test system: Ileum
Assay: Antiacetylcholine activity in guinea pig ileum assessed as dose required to decrease 50 to 100% of acetylcholine-induced effect treated 5 mins before acetylcholine addition
Format: functional, Cavia porcellus
// units = µg/mL; emit number, no label

Please review the following examples before continuing.
>>> recorded_number("O=C1c2ccccc2N(c2ccccc2)CCN1CCN1CCCCC1")
100
>>> recorded_number("C[N+](C)(C)CCN1CCN(c2ccccc2)c2ccccc2C1=O.[I-]")
50
>>> recorded_number("CNC1=Nc2ccc(Cl)cc2C(c2ccccc2)=[N+]([O-])C1 [CHLORDIAZEPOXIDE]")
3

Lab note: next compound to report on.
Activity recorded for this compound, "CCN(CC)CCN1CCN(c2ccccc2)c2ccccc2C1=O" , is 100

* * *

Tested on: Mus musculus
Assay: Toxicity in ip dosed albino mouse assessed as barbiturate-induced sleep by measuring loss of righting reflex administered 45 mins before barbiturate challenge relative to control
Format: organism-based
Details: in vivo, 0.75 h
endpoint_name: Activity (%)
Output spec: scalar in %, unitless text.

>>> recorded_number("Nc1ccc(N2CCNC(=O)c3ccccc32)cc1")
50
>>> recorded_number("C[N+](C)(C)CCCN1CCN(c2ccccc2)c2ccccc2C1=O.[I-]")
10
>>> recorded_number("O=C1NCCN(c2ccc([N+](=O)[O-])cc2)c2ccc([N+](=O)[O-])cc21")
50

Value of Activity reported for the compound "C[N+]1(CCN2CCN(c3ccccc3)c3ccccc3C2=O)CCCCC1.[I-]" is 3

* * *

Measured Activity of individual entries
Tested on: Mus musculus
Assay: Toxicity in ip dosed albino mouse assessed as barbiturate-induced sleep by measuring loss of righting reflex administered 45 mins before barbiturate challenge relative to control
Assay type: organism-based
Conditions: in vivo, 0.75 h
Number plus unit, in that order.

>>> result("CC(C[N+](C)(C)C)N1CCN(c2ccccc2)c2ccccc2C1=O.[I-] (stereo unspecified)")
"5%"
>>> result("O=C1c2ccccc2N(c2ccccc2)CCN1CCN1CCCCC1")
"20%"
>>> result("CC[N+](C)(CC)CCN1CCN(c2ccccc2)c2ccccc2C1=O.[I-]")
"5%"
>>> result("CCN(CC)CCN1CCN(c2ccccc2)c2ccccc2C1=O")
"10%"
>>> result("CN(C)CCCN1CCN(c2ccccc2)c2ccccc2C1=O")
"10%"

Data point: "O=C1c2ccccc2N(c2ccccc2)CCN1CCN1CCCC1" ; Activity = 20%
